Data origin, for the record: patent US8309584B2

# TARGET_UNDER_TEST: rat CB-1 receptor (Rattus norvegicus)
# Construct: The tissue obtained from the brain of SD rats was homogenized; from tissue; host or cells: SD rat brain membrane homogenate
# EXPERIMENT_DESCRIPTION: rat cannabinoid-1 receptor (CB1R) binding affinity assay
# CONDITION_DESCRIPTION: [3H]CP-55940 radioligand, SD rat brain tissue homogenate, 30° C., 60 min; read-out: IC50
MEASUREMENT_TYPE: IC50 (nM)
The answer is to be given in nM; state only the numeric part.

A selection of reference data follows.
MOLECULE: CSc1c(-c2nnc(C(C)(C)C)s2)nn(-c2ccc(Cl)cc2Cl)c1-c1ccc(Cl)cc1 [Example 21]
MEASUREMENT_TYPE: IC50
VALUE: 5.19

MOLECULE: CSc1c(-c2nnc(C(C)(C)C)o2)nn(-c2ccc(Cl)cc2Cl)c1-c1ccc(Br)cc1 [Example 9]
MEASUREMENT_TYPE: IC50
VALUE: 5.5

MOLECULE: C[S+]([O-])c1c(-c2nnc(C3(C(F)(F)F)CCC3)o2)nn(-c2ccccc2Cl)c1-c1ccc(Br)cc1 (stereo not shown) [Example 55]
MEASUREMENT_TYPE: IC50
VALUE: 6.51

MOLECULE: CSc1c(-c2nnc(C3(C(F)(F)F)CCC3)o2)nn(-c2ccccc2Cl)c1-c1ccc(Cl)cc1 [Example 7]
MEASUREMENT_TYPE: IC50
VALUE: 4.21

MOLECULE: CSc1c(-c2nnc(C3(C(F)(F)F)CCC3)o2)nn(-c2ccc(Cl)cc2Cl)c1-c1ccc(Cl)cc1 [Example 3]
MEASUREMENT_TYPE: IC50
VALUE: 9.71

MOLECULE: C[S+]([O-])c1c(-c2nnc(C(C)(C)C)o2)nn(-c2ccccc2Cl)c1-c1ccc(Br)cc1 (stereo not shown) [Example 53]
MEASUREMENT_TYPE: IC50
VALUE: 15.6

MOLECULE: CSc1c(-c2nnc(C3(C(F)(F)F)CC3)s2)nn(-c2ccc(Cl)cc2Cl)c1-c1ccc(Br)cc1 [Example 30]
MEASUREMENT_TYPE: IC50
VALUE: 14.8

MOLECULE: C[S+]([O-])c1c(-c2nnc(C3(C(F)(F)F)CC3)s2)nn(-c2ccccc2Cl)c1-c1ccc(Br)cc1 (stereo not shown) [Example 73]
MEASUREMENT_TYPE: IC50
VALUE: 6.08

(Q) Returns the measured IC50 for the input molecule. Input: C[S+]([O-])c1c(-c2nnc(C3(C(F)(F)F)CC3)s2)nn(-c2ccc(Cl)cc2Cl)c1-c1ccc(Cl)cc1 (stereo not shown) [Example 61]
(A) 11.3

(Q) Returns the measured IC50 for the input molecule. Input: C[S+]([O-])c1c(-c2nnc(C3(c4ccc(Cl)cc4)CC3)s2)nn(-c2ccc(Cl)cc2Cl)c1-c1ccc(Cl)cc1 (stereo not shown) [Example 63]
(A) 11.8

(Q) Returns the measured IC50 for the input molecule. Input: C[S+]([O-])c1c(-c2nnc(C(C)(C)C)s2)nn(-c2ccccc2Cl)c1-c1ccc(Br)cc1 (stereo not shown) [Example 72]
(A) 7.97

----------
# TARGET_UNDER_TEST: rat CB-1 receptor (Rattus norvegicus, UniProt P20272)
# Construct: The tissue obtained from the brain of SD rats was homogenized; from tissue; host or cells: SD rat brain membrane homogenate
# Sequence (P20272 whole entry): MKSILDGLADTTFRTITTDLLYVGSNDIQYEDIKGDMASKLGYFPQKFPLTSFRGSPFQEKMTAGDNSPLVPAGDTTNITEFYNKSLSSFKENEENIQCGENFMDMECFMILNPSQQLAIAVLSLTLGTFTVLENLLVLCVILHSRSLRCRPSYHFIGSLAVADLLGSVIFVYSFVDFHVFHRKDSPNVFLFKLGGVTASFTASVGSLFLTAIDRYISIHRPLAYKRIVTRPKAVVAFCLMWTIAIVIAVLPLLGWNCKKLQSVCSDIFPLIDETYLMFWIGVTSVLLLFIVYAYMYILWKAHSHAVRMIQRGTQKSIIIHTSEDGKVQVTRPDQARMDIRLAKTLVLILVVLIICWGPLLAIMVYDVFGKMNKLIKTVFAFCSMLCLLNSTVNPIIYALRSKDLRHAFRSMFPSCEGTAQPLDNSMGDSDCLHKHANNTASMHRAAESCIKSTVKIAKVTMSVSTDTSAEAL
# EXPERIMENT_DESCRIPTION: rat cannabinoid-1 receptor (CB1R) binding affinity assay
// reported IC50 for each item listed
The answer is to be given in nM; state only the numeric part.

A selection of reference data follows.
MOLECULE: CSc1c(-c2nnc(C3(C(F)(F)F)CCC3)s2)nn(-c2ccc(Cl)cc2Cl)c1-c1ccc(Cl)cc1 [Example 23]
TARGET_UNDER_TEST: rat CB-1 receptor (Rattus norvegicus, UniProt P20272)
RESULT_UNITS: nM
IC50: 7.31
//
MOLECULE: CSc1c(-c2nnc(C3(C(F)(F)F)CCC3)s2)nn(-c2ccccc2Cl)c1-c1ccc(Br)cc1 [Example 35]
TARGET_UNDER_TEST: rat CB-1 receptor (Rattus norvegicus, UniProt P20272)
RESULT_UNITS: nM
IC50: 7.77
//
MOLECULE: CSc1c(-c2nnc(C3(c4ccc(Cl)cc4)CC3)s2)nn(-c2ccc(Cl)cc2Cl)c1-c1ccc(Cl)cc1 [Example 24]
TARGET_UNDER_TEST: rat CB-1 receptor (Rattus norvegicus, UniProt P20272)
RESULT_UNITS: nM
IC50: 6.66

(Q) Returns the measured IC50 for the input molecule. Input: CS(=O)(=O)c1c(-c2nnc(C3(C(F)(F)F)CCC3)o2)nn(-c2ccc(Cl)cc2Cl)c1-c1ccc(Cl)cc1 [Example 82]
(A) 6.79

(Q) Returns the measured IC50 for the input molecule. Input: CSc1c(-c2nnc(C3(C(F)(F)F)CC3)o2)nn(-c2ccccc2Cl)c1-c1ccc(Br)cc1 [Example 14]
(A) 4.11
